Assay: yeast display, Sf9 membrane polyspecificity reagent, FACS + sequencing; frameworks hold sequencing errors
experimentalEndpoint: polyreactivity (PSR sort gate)

Below, 4 sequences whose answers are already recorded.
residueString: QVQLVESGGGLVQAGGSLRLSCAASGGIFPTYVMGWYRQAPGKERELVAAIDRNGTSTTYADSVKGRFTISRDYAKNTVYLQMNSLKPEDTAVYYCAAGYNDQTSAYDYWGQGTQVTVSS
experimentalEndpoint: polyreactivity (PSR sort gate)
reportedMeasurement: low polyreactivity

residueString: QVQLVESGGGLVQAGGSLRLSCAASGRTFRANAMGWYRQAPGKERDLVAAITWDGGSTYYADSVKGRFTISRDNAKNTVYLQMNSLKPEDTAVYYCNTDPYLWGQGTQVTVSS
experimentalEndpoint: polyreactivity (PSR sort gate)
reportedMeasurement: low polyreactivity

residueString: QVQLVESGGRSVQAGGSRRLSCAASGFSFHYYAMGWYRAAPATERELVAAITSRGTATYYADSVKGRFTISRDTAKITVDLLMNCLKPEDTAVYYCAKASTERMGSWGQGTQVTVSS
experimentalEndpoint: polyreactivity (PSR sort gate)
reportedMeasurement: high polyreactivity

residueString: QVQLVESGGGLVQAGGSLRLSCAASGSIFKFYTMGWYRQAPGKERELVAAISSSDGSTHYADSVKGRFTISRDNAKNTVYLQMNSLKPEDTAVYYCARRRYSRYSVTRGNYWGQGTQVTVSS
experimentalEndpoint: polyreactivity (PSR sort gate)
reportedMeasurement: high polyreactivity

We now examine a further sequence.
For this sequence ( QVQLVESVGGLVQAGGILRLSCGASGRTFTGYTMRWYRQEPGKERELVATISRRGRSTYYADSVKGRFTISRDNAKNTVYLQMNSLKPEDTAVYYCAAEKPRAVYFEYDYWGLGTQVTVSS ), measured polyreactivity (PSR sort gate) is high polyreactivity

====

Experiment: yeast display, Sf9 membrane polyspecificity reagent, FACS + sequencing; frameworks hold sequencing errors
experimentalEndpoint: polyreactivity (PSR sort gate)

Below, 4 sequences whose answers are already recorded.
residueString: QVQLVESGGGLVQAGGSLRLSCAASGSIFGLYAMGWYRQAPGKERELVAAITVSGGSTYYADSVKGRFTISRDNAKNTVYLQMNSLKPEDTAVYYCAARAGWPLYQYYYWGQGTQVTVSS
polyreactivity (PSR sort gate): high polyreactivity
--
residueString: QVQLVESGGGLVQAGGSLRLSCAASGNTFWGNAMGWYRQAPGKERELVATISASSGSTYYADSVKGRFTISRDNAKNTVYLQMNSLKPEDTAVYYCAKTALRYLKHGRTKGDYWGQGTQVTVSS
polyreactivity (PSR sort gate): low polyreactivity
--
residueString: QVQLVESGGGLVQAGGSLRLSCAASGRTFRIYAEGWYRQPPGKERELVARITWSGGRTYYADSVKGRFTISRDNAQNTVYLQMNSLKPEDTAVYYCNAGGSWEFDYWGQGTQVTVSS
polyreactivity (PSR sort gate): low polyreactivity
--
residueString: QVQLVESGGGLVQAGGSLRLSCAASGITLYGYVMGWYRQAPGKERELVAAISASGGRTHYADSVKGRFTISRDNAKNTVYLQMNSLKPEDTAVYYCARAGSRSPGGYDYWGQGTQVTVSS
polyreactivity (PSR sort gate): high polyreactivity

We now examine a further sequence.
For this sequence ( QVQLVESGGGLVQAGGSLRLSCAASGIIFPWYDMGWYRQAPGKERELVAGITDGGDTTYADSVKWRFTISRDNAKNTVYLQMNSLKPEDTAVYYCAADIGYGYWHFDYWGQGTQVTVSS ), measured polyreactivity (PSR sort gate) is low polyreactivity
